Provenance of the data: patent US5919668A

Exercise: state measured Composition: trehalose formed for each of the compounds provided.
ASSAYED_TARGET: trehalose-releasing enzyme (Rhizobium sp. M-11)
Construct: M-11, about 58-68 kDa
Sequence (Q53238 whole entry): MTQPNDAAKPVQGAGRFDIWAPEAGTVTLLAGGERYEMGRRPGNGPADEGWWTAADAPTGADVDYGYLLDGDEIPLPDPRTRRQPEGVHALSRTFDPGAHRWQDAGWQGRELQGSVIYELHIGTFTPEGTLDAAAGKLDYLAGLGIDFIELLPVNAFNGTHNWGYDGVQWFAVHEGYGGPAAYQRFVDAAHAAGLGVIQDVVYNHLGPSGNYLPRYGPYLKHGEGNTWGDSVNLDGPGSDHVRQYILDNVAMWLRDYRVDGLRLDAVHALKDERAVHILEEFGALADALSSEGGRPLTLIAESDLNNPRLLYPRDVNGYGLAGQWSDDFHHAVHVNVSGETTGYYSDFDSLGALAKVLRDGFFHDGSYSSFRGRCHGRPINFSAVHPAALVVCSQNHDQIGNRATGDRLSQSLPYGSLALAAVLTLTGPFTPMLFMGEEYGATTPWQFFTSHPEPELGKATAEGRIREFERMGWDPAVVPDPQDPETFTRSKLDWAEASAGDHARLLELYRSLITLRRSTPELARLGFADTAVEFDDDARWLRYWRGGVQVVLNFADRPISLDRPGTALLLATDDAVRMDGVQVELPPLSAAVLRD
Format: biochemical, Rhizobium species M-11
CONDITION_NOTES: 20% substrate, 2 units/g, 40° C., pH7.0, 48 hours
State just the number; it will be interpreted in %.

Form: compound = OC[C@H]1O[C@H](O[C@H]2O[C@H](CO)[C@@H](O[C@H]3O[C@H](CO)[C@@H](O[C@H]4O[C@H](CO)[C@@H](O[C@H]5O[C@H](CO)[C@@H](O[C@H]6O[C@H](CO)[C@@H](O[C@H]7O[C@H](CO)[C@@H](O)[C@H](O)[C@H]7O)[C@H](O)[C@H]6O)[C@H](O)[C@H]5O)[C@H](O)[C@H]4O)[C@H](O)[C@H]3O)[C@H](O)[C@H]2O)[C@H](O)[C@@H](O)[C@@H]1O [PV, alpha-maltopentaosyl trehalose] ; Composition: trehalose formed = 29.1

Lookup result for OC[C@H]1O[C@H](O[C@H]2O[C@H](CO)[C@@H](O[C@H]3O[C@H](CO)[C@@H](O[C@H]4O[C@H](CO)[C@@H](O[C@H]5O[C@H](CO)[C@@H](O)[C@H](O)[C@H]5O)[C@H](O)[C@H]4O)[C@H](O)[C@H]3O)[C@H](O)[C@H]2O)[C@H](O)[C@@H](O)[C@@H]1O [PIII, alpha-maltotriosyl trehalose] ; measured Composition: trehalose formed: 39.5
